conditions: in ethyl acetate, 308.15 K
Recorded metric: solubility (mole fraction)
Could you respond with only the numeric value?

Short answer for O=C(O)c1cccnc1Nc1cccc(C(F)(F)F)c1 : solubility (mole fraction) was 0.0346

----------
settings: in methanol, 293.15 K
Recorded metric: solubility (mole fraction)

solubility (mole fraction) measured on O=C(O)c1cccnc1Nc1cccc(C(F)(F)F)c1 = 0.00766

----------
conditions: in cyclohexane, 328.15 K
Recorded metric: solubility (mole fraction)
Lab note: record just the number, no unit beside it.

// recorded solubility (mole fraction) for O=C(O)c1cccnc1Nc1cccc(C(F)(F)F)c1 : 0.0182

----------
conditions: in ethanol, 293.15 K
Recorded metric: solubility (mole fraction)
Please reply with the value in numeric form only.

According to the records, this molecule O=C(O)c1cccnc1Nc1cccc(C(F)(F)F)c1 displays solubility (mole fraction) of 0.00873

Reference source for all entries: BigSolDB 2.1
